- target system: CXCR4 (Homo sapiens)
- Construct: endogenous in cells; IL-2 stimulated lymphocytes from human blood
- method summary: Inhibition of SDF-1 ligand binding or chemotaxis assay for CXCR4
- assay conditions: first (or only) activity listed in CXCR4/CXCR7; chemotaxis assay or binding assays
pIC50: −log10 of the molar value.
Provide the reported pIC50 of each item.

query: What does the record list as pIC50 for COc1ccc2c(c1)c1c(cnn1C(=O)NCCN1CCC[C@@H]3CCCC[C@H]31)c(=O)n2C ?
result: > 6.00

query: GET /values?readout=pIC50&item= COc1ccc2c(c1)-c1c(cnn1CC(=O)NCCN(C)C1CCCCCCC1)CO2
result: 5.00 to 6.00

query: # input compound: Cc1ccc2c(c1)-c1c(cnn1CC(=O)NCCN(C)C1CCCCC1)CO2 ; wanted: its pIC50
result: 5.00 to 6.00

query: Item under review: CN(CCCNC(=O)Cn1ncc2cc3ccccc3nc21)C1CCCCC1 . Reported pIC50?
result: 5.00 to 6.00

query: Tell me the measured pIC50 of COc1ccc2c(c1)-c1c(cnn1CC(=O)NCCN(C)C1CCCCCC1)CO2 , please.
result: < 5.00

query: Can you look up the measured pIC50 of COc1ccc2oc(=O)c3cnn(CC(=O)NCCN(C)C4CCCCC4)c3c2c1 for me?
result: > 6.00

query: Using the record for Cc1ccc2c(c1)-c1c(cnn1CC(=O)N1CCN(C3CCCCCC3)CC1)CO2 , report its pIC50.
result: 5.00 to 6.00

query: // query pIC50 value for entry COc1ccc2c(c1)c1c(cnn1CC(=O)NCCN(C)C1CCCCC1)c(=O)n2CC(=O)OC(C)(C)C
result: 5.00 to 6.00

====

- target system: CXCR4 (Homo sapiens)
- Construct: endogenous in cells; IL-2 stimulated lymphocytes from human blood
- method summary: Inhibition of SDF-1 ligand binding or chemotaxis assay for CXCR4
- assay conditions: first (or only) activity listed in CXCR4/CXCR7; chemotaxis assay or binding assays
Exercise: state measured IC50 for each of the molecules provided.

query: # input molecule: COc1ccc2c(c1)c1c(cnn1CC(=O)NCCN1CCCC(C)C1)c(=O)n2C (stereo not drawn) [Compound 40] ; wanted: its IC50
result: 1 to 10 µM

query: So what's the measured IC50 for this one? CN(CCNC(=O)Cn1ncc2[nH]c(=O)c3ccccc3c21)C1CCCCC1 [Compound 10]
result: > 10 µM

query: Look at this molecule and give its reported IC50. CN(CCNC(=O)Cn1ncc2c1-c1ccc(C#N)cc1OC2)C1CCCCC1 [Compound 19]
result: < 1 µM

====

- target system: CXCR4 (Homo sapiens, UniProt P61073)
- Construct: endogenous in cells; IL-2 stimulated lymphocytes from human blood
- Sequence (P61073 whole entry): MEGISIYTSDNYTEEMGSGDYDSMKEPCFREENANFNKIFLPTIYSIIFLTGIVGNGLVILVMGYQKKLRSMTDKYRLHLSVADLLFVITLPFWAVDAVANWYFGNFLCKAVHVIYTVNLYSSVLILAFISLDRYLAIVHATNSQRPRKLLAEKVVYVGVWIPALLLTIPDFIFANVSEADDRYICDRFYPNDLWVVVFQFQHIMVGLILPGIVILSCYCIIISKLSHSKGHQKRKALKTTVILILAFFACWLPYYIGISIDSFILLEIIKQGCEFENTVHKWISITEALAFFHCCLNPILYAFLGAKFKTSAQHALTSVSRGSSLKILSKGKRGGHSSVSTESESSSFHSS
- method summary: Inhibition of SDF-1 ligand binding or chemotaxis assay for CXCR4
- assay conditions: first (or only) activity listed in CXCR4/CXCR7; chemotaxis assay or binding assays
- Experimental: CEM-Nkr, CCRF-CEM (ATCC #CCL-119), Jurkat (ATCC #TIB-152), Molt-4 (ATCC# CRL-1 582), cell lines, all endogenously expressing CXCR4, were used in compound screening and subsequent assays. These cell lines were cultured as a suspension in RPMI-1640 medium supplemented with 2 mM L-glutamine, 1.5 g/L sodium bicarbonate, 4.5 g/L glucose, 10 mM HEPES, 1 mM sodium pyruvate, and 10% FBS. […]
Task for the reader: assign each of the following compounds its reported IC50.

query: State the recorded IC50 for this entry: COc1ccc2c(c1)c1c(cnn1CC(=O)NCCNC1CCCCC1)c(=O)n2C
result: > 10 µM

query: Quick one: IC50 of CN(CCNC(=O)Cn1ncc2c(=O)oc3ccc(Cl)cc3c21)C1CCCCC1 ?
result: 1 to 10 µM

query: Quick one: IC50 for Cc1ccc2c(c1)-c1nn(CC(=O)NCCN(C)C3CCCCC3)cc1CO2 ?
result: 1 to 10 µM

query: Data request, read-out IC50, for CCN(CCNC(=O)Cn1ncc2c(=O)n(C)c3ccc(OC)cc3c21)C1CCCCC1
result: 1 to 10 µM

query: # get_value(readout='IC50', item= COc1ccc2c(c1)-c1c(cnn1CC(=O)NCCN(C)C1CCCCC1)C(OCC(=O)OC(C)(C)C)N2 (centres unmarked) )
result: 1 to 10 µM

query: Which IC50 is listed for COc1ccc2c(c1)c1c(cnn1CC(=O)NCCN1CCC3CCCCC3C1)c(=O)n2C (centres unmarked) ?
result: < 1 µM

query: GET /values?readout=IC50&item= CN(CCNC(=O)Cn1ncc2c(=O)oc3ccccc3c21)C1CCCCC1
result: > 10 µM

query: What value of IC50 has been recorded for this entry: Cc1ccc2oc(=O)c3cnn(CC(=O)NCCN(C)C4CCCCC4)c3c2c1
result: 1 to 10 µM
